- test-target: sterol 14-reductase (Rattus norvegicus)
- Construct: to give a microsome which was used as an enzyme source of sterol 14-reductase; from tissue
- test: Sterol 14-reductase assay with rat liver microsomes (substrate 4,4-dimethyl-5α-cholesta-7,14-dien-3β-ol, GLC)
- Type: biochemical, Sprague-Dawley rats
- run-parameters: read-out: Enzyme Activity (relative in vitro activity for sterol 14-reductase, IC50 class)
Please respond with reported IC50 for every item in the list.

Record IC50 per entry; entries follow.
1. COc1ccc2c(C3CCOC3=O)c3[n+](cc2c1OC)CCc1cc2c(cc1-3)OCO2 (centres unmarked)
2. CCC1=C2c3cc(OC)c(OC)cc3CCN2Cc2c1ccc(OC)c2OC [Compound No. 46, 13-Ethyldihydropalmatine]
3. CCCCOc1cc2c(cc1OCCCC)-c1cc3ccc(OCCCC)c(OCCCC)c3c[n+]1CC2
4. CCOc1cc2c(cc1OCC)C1=C(CC)c3ccc(OCC)c(OCC)c3CN1CC2
5. COc1ccc2c(c1OC)C(C(C)C)N1CCc3cc4c(cc3C1=C2)OCO4 (centres unmarked) [Compound No. 32, 8-i-propyldihydroberberine]
6. CCC1=C2c3cc(OC)c(OC)cc3CCN2C(C)c2c1ccc(OC)c2OC (centres unmarked) [Compound No. 48, 8-Methyl-13-ethyldihydropalmatine]
7. CCC1c2c(ccc(OC)c2OC)C=C2c3cc(OC)c(OC)cc3CCN21 (centres unmarked) [Compound No. 34, 8-Ethyldihydropalmatine]

A.
≥ 100 µM
≤ 1 µM
10 to 100 µM
≤ 1 µM
≥ 100 µM
≥ 100 µM
≥ 100 µM

Below is a list of compounds. For each, state its recorded IC50.
1. CCC1c2c(ccc(OC)c2OC)C=C2c3cc4c(cc3CCN21)OCO4 (centres unmarked) [Compound No. 28, 8-Ethyldihydroberberine]
2. COc1ccc2c(C)c3[n+](cc2c1OC)CCc1cc2c(cc1-3)OCO2
3. COc1cc2c(cc1OC)-c1c(CC3CCCCC3)c3ccc(OC)c(OC)c3c[n+]1CC2
4. C=CCc1c2[n+](cc3c(O)c(O)ccc13)CCc1cc(O)c(O)cc1-2 [Compound No. 10, 2,3,9,10-Tetrahydroxy-13-allylberberine]

A.
1: ≥ 100 µM; 2: 10 to 100 µM; 3: ≥ 100 µM; 4: ≥ 100 µM

====

- test: Acute oral toxicity in SD rats
- Type: in vivo
- run-parameters: rat, in vivo, po, rats, female
- Description: Meanwhile, the toxicity of the compounds of the present invention was mvestigated as follows: i.e., the compounds were suspended into propylene glycol and then orally administered into each of 5 male and female SD rats at the age of 5-weeks that were fasted for 12 hours. Under the usual breeding conditions, general symptoms, weight change and lethal case of the above rats were monitored for two weeks. At the dose over 2,000 mg/kg of the compound nos. […]
reported-metric: LD50 at 336 h

Example molecules with recorded LD50 at 336 h:
molecule: CCc1c2[n+](cc3c(OC)c(OC)ccc13)CCc1cc(OC)c(OC)cc1-2 [Compound No. 8, 13-Ethylpalmatine]
reported-metric: LD50 at 336 h
result-value: > 760 mg/kg

molecule: CCC1=C2c3cc(OC)c(OC)cc3CCN2Cc2c1ccc(OC)c2OC [Compound No. 46, 13-Ethyldihydropalmatine]
reported-metric: LD50 at 336 h
result-value: > 3000 mg/kg

molecule: CCC1=C2c3cc(OC)c(OC)cc3CCN2C(CC(C)=O)c2c1ccc(OC)c2OC (stereo not shown) [Compound No. 37, 8-Acetonyl-13-ethyldihydropalmatine]
reported-metric: LD50 at 336 h
result-value: > 2000 mg/kg

Read the next record carefully.
Q. Entry CCOc1cc2c(cc1OCC)-c1c(CC)c3ccc(OCC)c(OCC)c3c[n+]1CC2 [Compound No. 5, 2,3,9,10-Tetraethoxy-13-ethylberberine] has what LD50 at 336 h?
A. > 5000 mg/kg

====

So I've got a bunch of compounds here, and I need their Glucose, percent change in parentheses values.
- Test system: Syrian Golden Hamster
- test: In vivo effect on plasma lipids and glucose in Syrian Golden Hamster
- run-parameters: against normal diet control; 6.0 mg/kg/day
Give bare numbers, in %.

The examples below pair each entry with its known result.
compound: CCOc1cc2c(cc1OCC)-c1c(CC)c3ccc(OCC)c(OCC)c3c[n+]1CC2 [Compound No. 5, 2,3,9,10-Tetraethoxy-13-ethylberberine]
units-symbol: %
Glucose, percent change in parentheses: -12.4

compound: CCC1=C2c3cc(OC)c(OC)cc3CCN2Cc2c1ccc(OC)c2OC [Compound No. 46, 13-Ethyldihydropalmatine]
units-symbol: %
Glucose, percent change in parentheses: -12.7

compound: CCC1=C2c3cc(OC)c(OC)cc3CCN2C(CC(C)=O)c2c1ccc(OC)c2OC (centres unmarked) [Compound No. 37, 8-Acetonyl-13-ethyldihydropalmatine]
units-symbol: %
Glucose, percent change in parentheses: -23.0

Now turn to the next compound.
Q. Which Glucose, percent change in parentheses reading was recorded for the compound CCc1c2[n+](cc3c(OC)c(OC)ccc13)CCc1cc(OC)c(OC)cc1-2 [Compound No. 8, 13-Ethylpalmatine] ?
A. -10.9

====

- System: Syrian Golden Hamster
- test: In vivo effect on plasma lipids and glucose in Syrian Golden Hamster
- run-parameters: against normal diet control; 6.0 mg/kg/day
reported-metric: Total cholesterol, percent change in parentheses (%)
Answers are plain numbers, in %.

Consider the worked cases shown below.
compound: CCC1=C2c3cc(OC)c(OC)cc3CCN2C(CC(C)=O)c2c1ccc(OC)c2OC (centres unmarked) [Compound No. 37, 8-Acetonyl-13-ethyldihydropalmatine]
units-symbol: %
result-value: -33.5
--
compound: CCOc1cc2c(cc1OCC)-c1c(CC)c3ccc(OCC)c(OCC)c3c[n+]1CC2
units-symbol: %
result-value: -23.5
--
compound: CCC1=C2c3cc(OC)c(OC)cc3CCN2Cc2c1ccc(OC)c2OC [Compound No. 46, 13-Ethyldihydropalmatine]
units-symbol: %
result-value: -34.6

Report Total cholesterol, percent change in parentheses for each item below.
1. CC[C@H](C)C(=O)O[C@H]1C[C@@H](C)C=C2C=C[C@H](C)[C@H](CC[C@@H]3C[C@@H](O)CC(=O)O3)[C@H]21 [lovastatin, reference compound]
2. CCc1c2[n+](cc3c(OC)c(OC)ccc13)CCc1cc(OC)c(OC)cc1-2

A.
[-22.7, -25.4]

====

- test-target: sterol 14-reductase (Rattus norvegicus, UniProt A0ACM8Q6X4)
- Construct: to give a microsome which was used as an enzyme source of sterol 14-reductase; from tissue
- Sequence (A0ACM8Q6X4 1-418): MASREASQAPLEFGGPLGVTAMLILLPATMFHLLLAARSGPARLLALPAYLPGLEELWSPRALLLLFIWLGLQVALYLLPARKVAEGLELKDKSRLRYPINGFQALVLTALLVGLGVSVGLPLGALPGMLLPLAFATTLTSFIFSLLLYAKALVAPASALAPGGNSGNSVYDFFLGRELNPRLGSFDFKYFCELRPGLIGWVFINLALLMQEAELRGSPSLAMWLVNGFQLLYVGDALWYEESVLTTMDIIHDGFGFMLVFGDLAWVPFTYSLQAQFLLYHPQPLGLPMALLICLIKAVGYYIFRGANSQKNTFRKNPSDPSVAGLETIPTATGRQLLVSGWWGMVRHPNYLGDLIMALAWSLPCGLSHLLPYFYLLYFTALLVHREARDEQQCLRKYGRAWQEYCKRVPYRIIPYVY
- test: Sterol 14-reductase assay with rat liver microsomes (substrate 4,4-dimethyl-5α-cholesta-7,14-dien-3β-ol, GLC)
- Format: biochemical, Sprague-Dawley rats
- run-parameters: dissolved in DMSO; read-out: concentration of active ingredient in the assay at which 50% of inhibitory effect was observed (sterol 14-reductase)
reported-metric: IC50

compound: COc1cc2c(cc1OC)-c1c(C)c3ccc(OC)c(OC)c3c[n+]1CC2
test-target: sterol 14-reductase (Rattus norvegicus, UniProt A0ACM8Q6X4)
reported-metric: IC50
result-value: 40 to 50 mM

Q. Look up IC50: CCc1c2[n+](cc3c(OC)c(OC)ccc13)CCc1cc(OC)c(OC)cc1-2 [Compound No. 8, 13-Ethylpalmatine]
A. 0.1 to 3 mM

====

- Test system: Syrian Golden Hamster
- test: In vivo effect on plasma lipids and glucose in Syrian Golden Hamster
- run-parameters: normal diet + 6.0 mg/kg/day, oral, 14 days, hamster plasma
reported-metric: Trigly-ceride (mg/dL)
One number for each entry, in mg/dL.

compound: CCC1=C2c3cc(OC)c(OC)cc3CCN2Cc2c1ccc(OC)c2OC [Compound No. 46, 13-Ethyldihydropalmatine]
Trigly-ceride [mg/dL]: 85.2

compound: CCc1c2[n+](cc3c(OC)c(OC)ccc13)CCc1cc(OC)c(OC)cc1-2 [Compound No. 8, 13-Ethylpalmatine]
Trigly-ceride [mg/dL]: 90.4

compound: CC[C@H](C)C(=O)O[C@H]1C[C@@H](C)C=C2C=C[C@H](C)[C@H](CC[C@@H]3C[C@@H](O)CC(=O)O3)[C@H]21 [lovastatin, reference compound]
Trigly-ceride [mg/dL]: 182.6

compound: CCC1=C2c3cc(OC)c(OC)cc3CCN2C(CC(C)=O)c2c1ccc(OC)c2OC (centres unmarked) [Compound No. 37, 8-Acetonyl-13-ethyldihydropalmatine]
Trigly-ceride [mg/dL]: 68.8

With those in mind, consider the next compound.
Q. Fill blank: measured Trigly-ceride of the compound CCOc1cc2c(cc1OCC)-c1c(CC)c3ccc(OCC)c(OCC)c3c[n+]1CC2 [Compound No. 5, 2,3,9,10-Tetraethoxy-13-ethylberberine] is ____.
A. 94.7

====

- Tested on: Syrian Golden Hamster
- test: In vivo effect on plasma lipids and glucose in Syrian Golden Hamster
- run-parameters: against normal diet control; 6.0 mg/kg/day
I'd be grateful if you could share measured LDL cholesterol, percent change in parentheses for these entries.
Answers are plain numbers, in %.

Some solved cases for reference:
compound: CCOc1cc2c(cc1OCC)-c1c(CC)c3ccc(OCC)c(OCC)c3c[n+]1CC2
result-value: -41.2

compound: CCc1c2[n+](cc3c(OC)c(OC)ccc13)CCc1cc(OC)c(OC)cc1-2
result-value: -42.0

compound: CC[C@H](C)C(=O)O[C@H]1C[C@@H](C)C=C2C=C[C@H](C)[C@H](CC[C@@H]3C[C@@H](O)CC(=O)O3)[C@H]21 [lovastatin, reference compound]
result-value: -29.1

compound: CCC1=C2c3cc(OC)c(OC)cc3CCN2C(CC(C)=O)c2c1ccc(OC)c2OC (centres unmarked) [Compound No. 37, 8-Acetonyl-13-ethyldihydropalmatine]
result-value: -52.1

// next item, LDL cholesterol, percent change in parentheses requested
Q. // lookup LDL cholesterol, percent change in parentheses for CCC1=C2c3cc(OC)c(OC)cc3CCN2Cc2c1ccc(OC)c2OC [Compound No. 46, 13-Ethyldihydropalmatine]
A. -50.7
